Test system: Abeta 1-42
Test: Cellular αLisa assay in SKNBE2 cells, Abeta 1-42
Type: cell-based, human
Details: Homo sapiens, SKNBE2, 18 h, incubated for 18 hours, read-out: Cellular αLisa assay in SKNBE2 cells Abeta 42 pIC50 (converted)
Experimental: Cellular αLisa Assay in SKNBE2 Cells In two αLisa assays the levels of Abeta total and Abeta 1-42 produced and secreted into the medium of human neuroblastoma SKNBE2 cells are quantified. […] Abeta total and Abeta 1-42 are measured by sandwich αLisa. αLisa is a sandwich assay using biotinylated antibody AbN/25 attached to streptavidin coated beads and antibody Ab4G8 or cAb42/26 conjugated acceptor beads for the detection of Abeta total and Abeta 1-42 respectively. […]
observedProperty: log10 IC50 (log10 of the value in nM)

- compound: "C[C@]1(c2cc(NC(=O)c3ccncn3)ccc2F)N=C(N)CO[C@@]1(F)C(F)(F)F [Compound 182]"
  observedProperty: "log10 IC50"
  dataValue: 2.32
- compound: "NC1=N[C@@](c2cc(-c3cncc(Cl)c3)ccc2F)(C2CC2)[C@@H](F)OC1 [Compound 294]"
  observedProperty: "log10 IC50"
  dataValue: 3.82
- compound: "NC1=N[C@@](c2cccc(NC(=O)c3ncc(Cl)cc3F)c2)(C2CC2)[C@H](C(F)(F)F)OC1 [Compound 288]"
  observedProperty: "log10 IC50"
  dataValue: 0.89
- compound: "N#Cc1cnc(C(=O)Nc2ccc(F)c([C@@]3(C4CC4)N=C(N)CO[C@@H]3F)c2)c(Cl)c1 [Compound 218]"
  observedProperty: "log10 IC50"
  dataValue: 2.93
- compound: "N#Cc1cnc(C(=O)Nc2ccc(F)c([C@@]3(C4CC4)N=C(N)CO[C@H]3C(F)(F)F)c2)c(Cl)c1 [Compound 235]"
  observedProperty: "log10 IC50"
  dataValue: 1.16
- compound: "C[C@]1(c2ccnc(-c3cc(Cl)cc(Cl)c3)c2)N=C(N)CO[C@@H]1F (single isomer, unassigned) [Compound 277]"
  observedProperty: "log10 IC50"
  dataValue: 2.03
- compound: "C[C@]1(c2cc(NC(=O)c3ccc(C#N)cn3)ccc2F)N=C(N)CO[C@@]1(F)C(F)(F)F [Compound 183]"
  observedProperty: "log10 IC50"
  dataValue: 1.16
- compound: "N#Cc1cnc(C(=O)Nc2cccc([C@@]3(C4CC4)N=C(N)CO[C@H]3F)c2)c(Cl)c1 [Compound 309]"
  observedProperty: "log10 IC50"
  dataValue: 1.87
- compound: "COc1ccc(C(=O)Nc2ccc(F)c([C@@]3(C4CC4)N=C(N)CO[C@H]3C(F)(F)F)c2)nc1 [Compound 231]"
  observedProperty: "log10 IC50"
  dataValue: 1.09
- compound: "C[C@]1(c2cc(NC(=O)c3ncc(C#N)cc3Cl)ccc2F)N=C(N)CO[C@@H]1F [Compound 209]"
  observedProperty: "log10 IC50"
  dataValue: 1.19
